Entries and their target mRNA inhibition values follow.
# target: IRF5
# stated-conditions: ASO, KARPAS-229, 1.33333 µM
After the bases stand the sugars from the 5' end (letter, count) and the backbone: PS all phosphorothioate, else s phosphorothioate and o phosphodiester by linkage. Methylation of C is not given here. e = 2'-O-(2-methoxyethyl) (MOE); k = constrained ethyl (cEt); d = 2'-deoxy (DNA)
parameter-measured: target mRNA inhibition (%)

> print(dat)
                         construct.sequence      parameter.measured  observed.measurement
1  TATTTCTGCTCCAGGT (sugars kkddddddddddkeke, PS)  target mRNA inhibition                    53
2  GGTCTTTGAGGTCTGG (sugars kkddddddddddkeke, PS)  target mRNA inhibition                    43
3   TCTGATATGATACCTA (sugars k3 d10 k3, PS)  target mRNA inhibition                    68
4  GGTTCTTGGACTCTCA (sugars kkkdddddddddkeke, PS)  target mRNA inhibition                    56
5   TGTGACTGTATTACCT (sugars k3 d10 k3, PS)  target mRNA inhibition                    44
6  GGTCTTTGAGGTCTGG (sugars k2 d9 e3 k2, PS)  target mRNA inhibition                    58
7   ACCATTCTATGCCTTT (sugars k3 d10 k3, PS)  target mRNA inhibition                    60
8  GGAAGTGAGTCTCAAA (sugars k3 d9 k3 e1, PS)  target mRNA inhibition                    13
